Numbers sourced from patent US20250326753A1.

# EXPERIMENTAL SYSTEM: BTK (Homo sapiens, UniProt Q06187)
# Sequence (Q06187 whole entry): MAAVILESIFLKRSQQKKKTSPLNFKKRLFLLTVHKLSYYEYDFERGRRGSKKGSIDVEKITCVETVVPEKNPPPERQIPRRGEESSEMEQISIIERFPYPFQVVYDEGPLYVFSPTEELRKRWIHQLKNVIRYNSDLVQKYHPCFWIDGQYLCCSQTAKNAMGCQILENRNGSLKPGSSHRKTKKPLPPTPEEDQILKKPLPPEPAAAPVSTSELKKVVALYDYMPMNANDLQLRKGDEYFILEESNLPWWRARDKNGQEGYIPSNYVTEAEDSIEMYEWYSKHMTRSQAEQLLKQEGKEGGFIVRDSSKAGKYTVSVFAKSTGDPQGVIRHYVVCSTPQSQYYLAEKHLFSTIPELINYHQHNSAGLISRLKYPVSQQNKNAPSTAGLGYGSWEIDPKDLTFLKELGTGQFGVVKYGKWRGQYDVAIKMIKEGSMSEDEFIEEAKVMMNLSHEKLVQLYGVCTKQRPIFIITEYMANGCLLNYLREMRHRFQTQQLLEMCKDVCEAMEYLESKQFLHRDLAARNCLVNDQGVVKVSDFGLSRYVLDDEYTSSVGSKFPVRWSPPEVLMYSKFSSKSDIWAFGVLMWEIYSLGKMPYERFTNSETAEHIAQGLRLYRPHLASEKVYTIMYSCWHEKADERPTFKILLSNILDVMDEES
# ASSAY OVERVIEW: BTK Kinase Enzyme System with ADP-Glo Kinase Assay
# EXPERIMENTAL CONTEXT: 50 μM ATP
pIC50: −log10 of the molar value.
RECORDED ENDPOINT: pIC50

For orientation, consider the following solved cases.
SMILES ENTRY: Cc1cccnc1[C@H]1CCC[C@@H](c2ncccc2C)N1CCNC[C@@H]1CC[C@@H](Nc2ncnc3[nH]cc(C(=O)c4ccc(Oc5ccccc5)cc4Cl)c23)CO1
EXPERIMENTAL SYSTEM: BTK (Homo sapiens, UniProt Q06187)
pIC50: 5.60 to 6.00
--
SMILES ENTRY: Cc1cc(-c2ncnc3[nH]c(C(=O)N(C)CCCN4[C@@H](c5ncccc5C)CCC[C@H]4c4ncccc4C)cc23)ccc1CNC(=O)c1ccc(C(C)(C)C)cc1
EXPERIMENTAL SYSTEM: BTK (Homo sapiens, UniProt Q06187)
pIC50: 6.00 to 7.00
--
SMILES ENTRY: Cc1cccnc1[C@H]1CCC[C@@H](c2ncccc2C)N1CCCCNC(=O)OC[C@@H]1CC[C@@H](Nc2ncnc3[nH]cc(C(=O)c4ccc(Oc5ccccc5)cc4Cl)c23)CO1
EXPERIMENTAL SYSTEM: BTK (Homo sapiens, UniProt Q06187)
pIC50: 7.00 to 9.00
--
SMILES ENTRY: Cc1cccnc1[C@H]1CCC[C@@H](c2ncccc2C)N1CCCCNC(=O)[C@@H]1CC[C@@H](Nc2ncnc3[nH]cc(C(=O)c4ccc(Oc5ccccc5)cc4Cl)c23)CO1
EXPERIMENTAL SYSTEM: BTK (Homo sapiens, UniProt Q06187)
pIC50: 7.00 to 9.00

Query: Give pIC50 (BTK (Homo sapiens, UniProt Q06187)) of the following molecule: `Cc1cccnc1[C@H]1CCC[C@@H](c2ncccc2C)N1CCN1CCN(C(=O)c2ccc(-c3cc4c(-c5cccc(NC(=O)c6ccc(C(C)(C)C)cc6)c5C)ncnc4[nH]3)cc2)CC1`
Response: 7.00 to 9.00

====

# EXPERIMENTAL SYSTEM: FES (Homo sapiens, UniProt P07332)
# Construct: purchased Reaction Biology Europe GmbH
# Sequence (P07332 whole entry): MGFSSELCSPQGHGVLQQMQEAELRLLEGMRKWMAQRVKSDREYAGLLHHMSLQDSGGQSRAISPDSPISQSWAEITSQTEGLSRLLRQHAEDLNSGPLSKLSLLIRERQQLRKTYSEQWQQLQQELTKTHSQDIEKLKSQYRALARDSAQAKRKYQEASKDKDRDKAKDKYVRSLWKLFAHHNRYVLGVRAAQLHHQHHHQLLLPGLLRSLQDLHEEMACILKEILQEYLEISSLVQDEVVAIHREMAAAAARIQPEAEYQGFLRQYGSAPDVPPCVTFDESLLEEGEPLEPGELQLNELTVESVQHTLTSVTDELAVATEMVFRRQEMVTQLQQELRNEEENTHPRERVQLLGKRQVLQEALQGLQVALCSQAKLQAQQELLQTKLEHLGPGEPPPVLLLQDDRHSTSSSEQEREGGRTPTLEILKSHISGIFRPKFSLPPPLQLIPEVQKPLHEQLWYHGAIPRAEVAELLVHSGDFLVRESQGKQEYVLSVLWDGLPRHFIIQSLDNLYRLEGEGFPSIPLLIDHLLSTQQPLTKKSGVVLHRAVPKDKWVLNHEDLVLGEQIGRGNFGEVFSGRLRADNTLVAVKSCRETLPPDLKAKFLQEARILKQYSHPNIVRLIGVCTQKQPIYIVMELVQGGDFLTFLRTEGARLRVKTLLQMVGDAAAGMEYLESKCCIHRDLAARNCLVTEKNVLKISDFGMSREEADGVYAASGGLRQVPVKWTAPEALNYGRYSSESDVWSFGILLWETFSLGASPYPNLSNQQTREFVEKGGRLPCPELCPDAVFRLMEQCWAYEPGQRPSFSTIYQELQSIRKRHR
# ASSAY OVERVIEW: PanQinase kinase panel: FES
# Type: biochemical
# EXPERIMENTAL CONTEXT: read-out: INHIBITORY EFFECT @ 1 uM: FES
Exercise: for every item that follows, state its recorded inhibition at 1 µM.

SMILES ENTRY: C=CC(=O)N1CCC([C@@H]2CCNc3c(C(N)=O)c(-c4ccc(Oc5ccccc5)cc4)nn32)CC1
READING: < 50%

Give one value of inhibition at 1 µM per listed molecule.
1. O=C(c1ccc(Oc2ccccc2)cc1Cl)c1c[nH]c2ncnc(N[C@@H]3CC[C@@H](CO)OC3)c12
2. Cc1cccnc1[C@H]1CCC[C@@H](c2ncccc2C)N1CCN1CCN(C(=O)c2ccc(-c3cc4c(-c5cccc(NC(=O)c6ccccc6)c5C)ncnc4[nH]3)cc2)CC1
3. COc1ccc(F)cc1C(=O)NCc1ccc(-c2nn([C@@H](C)C(F)(F)F)c(N)c2C(N)=O)cc1

Response:
1. 50 to 69%
2. < 50%
3. < 50%

====

For each record, write down the corresponding IC50.
# EXPERIMENTAL SYSTEM: BTK (Bruton tyrosine kinase) (Homo sapiens, UniProt Q06187)
# Construct: GST or His (the text leaves open which); purchased Reaction Biology Europe GmbH Lot 012,11; host or cells: Sf9 insect cells or E. coli (not resolved)
# Sequence (Q06187 whole entry): as the sequence (Q06187 whole entry) above
# ASSAY OVERVIEW: BTK screening assay (33PanQinase Activity Assay, radiometric)
# Format: biochemical
# EXPERIMENTAL CONTEXT: Inhibition of BTK, radiometric 33PanQinase Activity Assay, 3 μM ATP, 10 concentrations in singlicate, top 10 μM; read-out: 33PanQinase ® Radiometric IC50

Below, 2 molecules whose answers are already recorded.
MOLECULE: Cc1cccnc1[C@H]1CC(COC(=O)[C@@H]2CC[C@@H](Nc3ncnc4[nH]cc(C(=O)c5ccc(Oc6ccccc6)cc5Cl)c34)CO2)C[C@@H](c2ncccc2C)N1CCCCN (stereo partly drawn)
READING: 1 to 100 nM
//
MOLECULE: Cc1cccnc1[C@H]1CCC[C@@H](c2ncccc2C)N1CCn1cc(-c2ccc(Oc3ccccc3)cc2)c2c(N)ncnc21
READING: > 2500 nM

Attention now shifts to the item below.
Query: Return reported IC50; argument: `Cc1cccnc1[C@H]1CCC[C@@H](c2ncccc2C)N1CCN1CCN(C(=O)c2ccc(-c3cc4c(-c5cccc(NC(=O)c6cccc(C(C)C)c6)c5C)ncnc4[nH]3)cc2)CC1`
Response: 100 to 1000 nM
